Numbers sourced from ChEMBL document CHEMBL3822376.

# Experimental details: in vitro
# Condition context: human, SH-SY5Y cells
# Description: Neurotoxicity in human SH-SY5Y cells assessed as cell viability at 1 uM after 24 hrs by XTT assay relative to control
The compounds listed here are annotated with their viability at 24 h, 1 µM.
I'd appreciate it if you included the unit after the number.

Example entries begin here.
[
  {
    "Compound": "CCOC(=O)C1=C(C)Oc2nc3c(c(N)c2C1c1cc2cccc(OC)c2nc1Cl)CCCC3 (centres undefined)",
    "viability at 24 h, 1 µM": "91.9%"
  },
  {
    "Compound": "CCOC(=O)C1=C(C)Oc2nc3c(c(N)c2C1c1cc2cc(C)ccc2nc1Cl)CCCC3 (centres undefined)",
    "viability at 24 h, 1 µM": "82.9%"
  },
  {
    "Compound": "COc1ccc2cc(C3C4=C(CC(C)(C)CC4=O)Oc4nc5c(c(N)c43)CCC5)c(Cl)nc2c1 (centres undefined)",
    "viability at 24 h, 1 µM": "91.6%"
  }
]

// below: viability at 24 h, 1 µM requested for another compound
Name the recorded viability at 24 h, 1 µM for CCOC(=O)C1=C(C)Oc2nc3c(c(N)c2C1c1cc2cc(OC)ccc2nc1Cl)CCCC3 (centres undefined) .
110%
